The measured values listed here are drawn from ChEMBL document CHEMBL4184309.

Molecular target: DNA topoisomerase 2-alpha (Homo sapiens) (UniProt P11388)
Sequence (P11388 whole entry): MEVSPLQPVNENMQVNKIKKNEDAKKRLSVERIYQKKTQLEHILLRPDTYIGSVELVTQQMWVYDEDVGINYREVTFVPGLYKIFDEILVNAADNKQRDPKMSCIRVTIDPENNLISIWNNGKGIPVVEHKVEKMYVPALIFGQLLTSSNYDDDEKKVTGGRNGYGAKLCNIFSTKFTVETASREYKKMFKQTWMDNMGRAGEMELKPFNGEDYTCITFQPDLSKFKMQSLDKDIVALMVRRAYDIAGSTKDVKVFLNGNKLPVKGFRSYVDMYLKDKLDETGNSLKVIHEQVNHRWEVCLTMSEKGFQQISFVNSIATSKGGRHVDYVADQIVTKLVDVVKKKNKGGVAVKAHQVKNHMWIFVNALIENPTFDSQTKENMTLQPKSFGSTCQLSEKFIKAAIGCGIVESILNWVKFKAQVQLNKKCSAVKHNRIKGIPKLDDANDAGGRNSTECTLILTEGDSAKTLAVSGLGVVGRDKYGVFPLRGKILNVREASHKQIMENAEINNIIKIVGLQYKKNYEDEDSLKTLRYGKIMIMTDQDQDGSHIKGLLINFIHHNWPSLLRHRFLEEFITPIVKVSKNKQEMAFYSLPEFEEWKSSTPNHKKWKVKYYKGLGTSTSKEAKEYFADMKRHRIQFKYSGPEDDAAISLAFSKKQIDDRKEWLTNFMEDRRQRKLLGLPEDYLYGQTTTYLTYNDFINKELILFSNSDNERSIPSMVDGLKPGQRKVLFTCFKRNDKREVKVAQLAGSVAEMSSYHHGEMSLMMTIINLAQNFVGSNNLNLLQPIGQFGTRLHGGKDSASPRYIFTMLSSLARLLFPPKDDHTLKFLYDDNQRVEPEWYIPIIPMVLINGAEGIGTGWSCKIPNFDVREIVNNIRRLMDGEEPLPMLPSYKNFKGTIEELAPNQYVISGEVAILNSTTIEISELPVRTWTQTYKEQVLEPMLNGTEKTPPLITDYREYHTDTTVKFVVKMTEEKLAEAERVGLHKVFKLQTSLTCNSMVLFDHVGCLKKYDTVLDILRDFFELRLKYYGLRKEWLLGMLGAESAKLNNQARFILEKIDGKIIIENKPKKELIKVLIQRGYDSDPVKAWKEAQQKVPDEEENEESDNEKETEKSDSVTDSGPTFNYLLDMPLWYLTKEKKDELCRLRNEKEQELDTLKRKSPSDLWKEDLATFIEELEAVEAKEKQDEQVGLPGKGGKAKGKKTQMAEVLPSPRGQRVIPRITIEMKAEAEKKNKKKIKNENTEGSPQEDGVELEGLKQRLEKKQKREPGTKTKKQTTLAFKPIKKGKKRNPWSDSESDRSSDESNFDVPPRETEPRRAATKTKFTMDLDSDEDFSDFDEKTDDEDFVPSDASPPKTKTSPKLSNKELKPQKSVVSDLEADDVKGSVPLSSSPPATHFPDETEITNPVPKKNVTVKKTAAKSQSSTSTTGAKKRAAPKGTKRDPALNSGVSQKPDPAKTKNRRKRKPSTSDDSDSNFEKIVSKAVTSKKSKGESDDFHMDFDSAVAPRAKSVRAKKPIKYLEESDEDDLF
Experiment: Inhibition of human topoisomerase-2 assessed as reduction in relaxation of pBR322 plasmid DNA at 20 uM measured after 30 mins by agarose gel electrophoresis
The source made the active and inactive calls. The rule behind the calls is not given here.
Please reply with one of these outcomes: active, inactive

Please review the following examples before continuing.
compound: O=C(O)CN1C(=O)/C(=C/c2ccc3c(c2)c2ccccc2n3Cc2ccccc2F)SC1=S
category-label: inactive
//
compound: O=C(O)CN1C(=O)/C(=C/c2ccc3c(c2)c2ccccc2n3Cc2ccc(Br)cc2)SC1=S
category-label: inactive
//
compound: N#Cc1ccc(Cn2c3ccccc3c3cc(/C=C4\SC(=S)N(CC(=O)O)C4=O)ccc32)cc1
category-label: active
//
compound: O=C(O)CN1C(=O)/C(=C/c2ccc3c(c2)c2ccccc2n3Cc2cccc(F)c2)SC1=S
category-label: inactive
//
compound: O=C(O)CN1C(=O)/C(=C/c2ccc3c(c2)c2ccccc2n3Cc2ccc(Br)cc2F)SC1=S
category-label: active
//
compound: O=C(O)CN1C(=O)/C(=C/c2ccc3c(c2)c2ccccc2n3Cc2ccccc2)SC1=S
category-label: inactive
//
compound: Cc1ccc(Cn2c3ccccc3c3cc(/C=C4\SC(=S)N(CC(=O)O)C4=O)ccc32)cc1
category-label: inactive
//
compound: O=C(O)CN1C(=O)/C(=C/c2ccc3c(c2)c2ccccc2n3Cc2ccc([N+](=O)[O-])cc2)SC1=S
category-label: active
//
compound: O=C(O)CN1C(=O)/C(=C/c2ccc3c(c2)c2ccccc2n3Cc2ccc(F)c(F)c2)SC1=S
category-label: active
//
compound: O=C(O)CN1C(=O)/C(=C/c2ccc3c(c2)c2ccccc2n3Cc2ccc(F)cc2F)SC1=S
category-label: inactive

Ask: Hi, do you know how O=C(O)CN1C(=O)/C(=C/c2ccc3c(c2)c2ccccc2n3Cc2ccc(Cl)cc2)SC1=S came out in this test?
Reply: inactive

Ask: Hi, do you know how O=C(O)CN1C(=O)/C(=C/c2ccc3c(c2)c2ccccc2n3Cc2ccc(F)cc2)SC1=S came out in this test?
Reply: active

Ask: Hi, do you know how O=C(O)CN1C(=O)/C(=C/c2ccc3c(c2)c2ccccc2n3Cc2ccc(C(F)(F)F)cc2)SC1=S came out in this test?
Reply: active

Ask: Hi, do you know how COc1cc([C@@H]2c3cc4c(cc3[C@@H](O[C@@H]3O[C@@H]5CO[C@@H](C)O[C@H]5[C@H](O)[C@H]3O)[C@H]3COC(=O)[C@H]23)OCO4)cc(OC)c1O [ETOPOSIDE] came out in this test?
Reply: active

====

I'd be grateful if you could share measured pIC50 for these entries.
Test system: K562
Test: Cytotoxicity against human K562 cells after 48 hrs by MTT assay
Type: functional, cell-based
Details: K562, 48 h
Give bare numbers, as −log10 of the molar value.

Here are 3 molecules together with their reported answers.
query-smiles: O=C(O)CN1C(=O)/C(=C/c2ccc3c(c2)c2ccccc2n3Cc2ccc(F)cc2F)SC1=S
property: pIC50
value-reported: 4.90

query-smiles: Cc1ccc(Cn2c3ccccc3c3cc(/C=C4\SC(=S)N(CC(=O)O)C4=O)ccc32)cc1
property: pIC50
value-reported: 4.53

query-smiles: O=C(O)CN1C(=O)/C(=C/c2ccc3c(c2)c2ccccc2n3Cc2cccc(F)c2)SC1=S
property: pIC50
value-reported: 4.89

Ask: Entry O=C(O)CN1C(=O)/C(=C/c2ccc3c(c2)c2ccccc2n3Cc2ccc(Br)cc2)SC1=S : reported pIC50 = ?
Reply: 4.55

====

System: K562
Assay: Cytotoxicity against human K562 cells after 48 hrs by MTT assay
Assay type: functional, cell-based
Details: K562, 48 h
pIC50: −log10 of the molar value.
Kindly return MET if reported pIC50 is no lower than 5; return NOT MET if it is lower.

query-smiles: N#Cc1ccc(Cn2c3ccccc3c3cc(/C=C4\SC(=S)N(CC(=O)O)C4=O)ccc32)cc1
test-target: K562
category-label: MET

query-smiles: O=C(O)CN1C(=O)/C(=C/c2ccc3c(c2)c2ccccc2n3Cc2ccccc2)SC1=S
test-target: K562
category-label: NOT MET

query-smiles: O=C(O)CN1C(=O)/C(=C/c2ccc3c(c2)c2ccccc2n3Cc2ccc(Br)cc2F)SC1=S
test-target: K562
category-label: MET

Ask: Is pIC50 at least 5? Consider O=C(O)CN1C(=O)/C(=C/c2ccc3c(c2)c2ccccc2n3Cc2ccc([N+](=O)[O-])cc2)SC1=S
Reply: MET

Ask: Is pIC50 at least 5? Consider O=C(O)CN1C(=O)/C(=C/c2ccc3c(c2)c2ccccc2n3Cc2ccc(C(F)(F)F)cc2)SC1=S
Reply: MET

Ask: Is pIC50 at least 5? Consider O=C(O)CN1C(=O)/C(=C/c2ccc3c(c2)c2ccccc2n3Cc2ccc(F)cc2)SC1=S
Reply: NOT MET

====

I'd be grateful if you could share measured pIC50 for these entries.
Tested on: K562
Assay: Cytotoxicity against human K562 cells after 48 hrs by MTT assay
Type: functional, cell-based
Details: K562, 48 h
Give bare numbers, as −log10 of the molar value.

Here are 2 molecules together with their reported answers.
query-smiles: O=C(O)CN1C(=O)/C(=C/c2ccc3c(c2)c2ccccc2n3Cc2ccc(F)c(F)c2)SC1=S
pIC50: 5.14
--
query-smiles: O=C(O)CN1C(=O)/C(=C/c2ccc3c(c2)c2ccccc2n3Cc2ccc(Cl)cc2)SC1=S
pIC50: 4.87

Ask: Please state recorded pIC50 (tested on K562) of O=C(O)CN1C(=O)/C(=C/c2ccc3c(c2)c2ccccc2n3Cc2ccccc2F)SC1=S
Reply: 4.93
